Tested on: Plasmodium berghei
protocolNotes: Screen against P. berghei liver stage (PbLuc), transformed with Luciferase, at 10uM
Assay type: functional, HepG2
testSettings: tested at 10 uM
The campaign covered roughly 69,000 compounds. About 8,600 (12%) showed an effect of 50% or more. The list comes from a sample in which strong results are over-represented; it also holds close analogues and randomly drawn compounds.
fulfilled if INHIBITION is below 40%. not fulfilled if not; exact matches included in not fulfilled.

>>> df
                                    molecule          testtarget          group
 0      CC[C@@H]1N(CC2CC2)CCC[C@]12CCC(=O)N2  Plasmodium berghei  not fulfilled
 1  CC(C)(C)c1cnc(CN2CCC(NC(=O)CC3CCCC3)CC2)o1  Plasmodium berghei      fulfilled
 2  O=C(c1cnn2ccccc12)N1CCCC(OCc2ccccn2)C1 (configuration not stated)  Plasmodium berghei      fulfilled
 3    O=C(c1ccccn1)N1CCc2ncnc(N3CCOCC3)c2CC1  Plasmodium berghei      fulfilled
 4  COCCN1CCCC1Cn1nc(C)cc1C (configuration not stated)  Plasmodium berghei      fulfilled
 5      CC(C)(C)c1cnc(CN2CCN(c3ncccn3)CC2)o1  Plasmodium berghei      fulfilled
 6      CCN(CC)CC1CCN(Cc2ncc(C(C)(C)C)o2)CC1  Plasmodium berghei  not fulfilled
 7  CC(C)(C)c1cnc(CN2CCC(NC(=O)NC3CCCCC3)CC2)o1  Plasmodium berghei  not fulfilled
 8    CC[C@H]1N(CC2CCOCC2)CCC[C@]12CCC(=O)N2  Plasmodium berghei      fulfilled
 9  CCN(C1CCN(Cc2ncc(C(C)(C)C)o2)CC1)S(C)(=O)=O  Plasmodium berghei  not fulfilled
10   CC[C@@H]1N(CC2CCOCC2)CCC[C@]12CCC(=O)N2  Plasmodium berghei  not fulfilled

---

Tested on: Plasmodium berghei
protocolNotes: Screen against P. berghei liver stage (PbLuc), transformed with Luciferase, at 10uM
Type: functional, HepG2
testSettings: tested at 10 uM
Out of some 69,000 compounds screened, about 8,600 (12%) showed an effect of 50% or more. This is one part of a sample in which strong results are shown more often than they occur.
reportedProperty: INHIBITION (%)

In [3]: df
Out[3]:
                                    compound  endpointunit  reportedmeasurement
 0  Nc1cc2c(nn1)CCN(C(=O)C1CCc3ccccc31)C2 (stereo not given)             %                 17.4
 1  Cc1csc2c(C3CCCN(C(=O)Cn4cncn4)C3)nc(C)n12 (stereo not given)             %                 7.19
 2  O=C(Cc1ccsc1)N1CCOC(c2nc(-c3ncccn3)no2)C1 (stereo not given)             %                 21.9
 3  CS(=O)(=O)NCc1cc(-c2cc(F)cc(F)c2)nc(N2CCOCC2)n1             %                -4.82
 4  Cc1nn(C)c(C)c1C1CCCN1Cc1nnc(C2CC2)n1C (stereo not given)             %                 50.5
 5  CC(=O)N1CCN(C(=O)CN2CCCC2c2c(C)nn(C)c2C)CC1 (stereo not given)             %                 50.1
 6   CN(Cc1ccc2c(c1)OCO2)Cc1nc(Cc2ccccc2)no1             %                 9.56
 7  O=C(C1=CCCC1)N1CCC2(CC1)CC(Oc1cccnc1)CO2 (stereo not given)             %                 41.3
 8        Nc1cc2c(nn1)CCN(C(=O)CCC1CCCCC1)C2             %                 62.6
 9  Cc1onc(-c2ccncc2)c1C(=O)NC1CCCOC1 (stereo not given)             %                 10.8
10  CS(=O)(=O)NC(c1ccccc1)c1ccc2c(c1)CCCO2 (stereo not given)             %                -9.98
11  CC(C)(C)C(=O)NCC(=O)NCC1CCCS1 (stereo not given)             %                 91.1
12          Nc1cc2c(nn1)CCN(C(=O)CC1CCCC1)C2             %                 2.26
13  Nc1cc2c(nn1)CCN(C(=O)Cc1ccc3c(c1)CCCC3)C2             %                  8.4
14         NC(=O)c1c[nH]nc1NCc1ccc2c(c1)OCO2             %                 4.35
15  Nc1cc2c(nn1)CCN(C(=O)CCc1ccc3c(c1)OCO3)C2             %                 32.9
16  CC(C)(C)CC(=O)NCC1CCCS1 (stereo not given)             %                 43.4
17  Nc1cc2c(nn1)CCN(C(=O)Cc1ccc3c(c1)CCO3)C2             %                 5.42
18  COCCC(=O)N1CCC2(CC1)CN(S(C)(=O)=O)Cc1ccccc1O2             %                -0.66
19  Cc1nn(C)c(Cl)c1C1CCCN1CC(=O)NC1CCCC1 (stereo not given)             %                   53
20            N#Cc1c[nH]nc1NCc1ccc2c(c1)OCO2             %                -5.51
21  CS(=O)(=O)NCC1CCCN(C(=O)Nc2ccccc2F)C1 (stereo not given)             %                  4.1
22  Cc1nn(C)c(Cl)c1C1CCCN1Cc1nnc(C2CC2)n1C (stereo not given)             %                 7.93
23       Nc1cc2c(nn1)CCN(C(=O)CCCC1CCCCC1)C2             %                 70.8
24  Cc1nn(C)c(Cl)c1C1CCCN1CC(=O)NC1CCCCC1 (stereo not given)             %                 14.7

These data points were gathered from ChEMBL document CHEMBL4513216.
